biological target: JAK1 (Homo sapiens, UniProt P23458); assay: experiment of inhibiting kinase activity (Caliper mobility shift assay), JAK1; assay type: biochemical; settings: at 10 nM; read-out: inhibition rate JAK1
Sequence (P23458 whole entry): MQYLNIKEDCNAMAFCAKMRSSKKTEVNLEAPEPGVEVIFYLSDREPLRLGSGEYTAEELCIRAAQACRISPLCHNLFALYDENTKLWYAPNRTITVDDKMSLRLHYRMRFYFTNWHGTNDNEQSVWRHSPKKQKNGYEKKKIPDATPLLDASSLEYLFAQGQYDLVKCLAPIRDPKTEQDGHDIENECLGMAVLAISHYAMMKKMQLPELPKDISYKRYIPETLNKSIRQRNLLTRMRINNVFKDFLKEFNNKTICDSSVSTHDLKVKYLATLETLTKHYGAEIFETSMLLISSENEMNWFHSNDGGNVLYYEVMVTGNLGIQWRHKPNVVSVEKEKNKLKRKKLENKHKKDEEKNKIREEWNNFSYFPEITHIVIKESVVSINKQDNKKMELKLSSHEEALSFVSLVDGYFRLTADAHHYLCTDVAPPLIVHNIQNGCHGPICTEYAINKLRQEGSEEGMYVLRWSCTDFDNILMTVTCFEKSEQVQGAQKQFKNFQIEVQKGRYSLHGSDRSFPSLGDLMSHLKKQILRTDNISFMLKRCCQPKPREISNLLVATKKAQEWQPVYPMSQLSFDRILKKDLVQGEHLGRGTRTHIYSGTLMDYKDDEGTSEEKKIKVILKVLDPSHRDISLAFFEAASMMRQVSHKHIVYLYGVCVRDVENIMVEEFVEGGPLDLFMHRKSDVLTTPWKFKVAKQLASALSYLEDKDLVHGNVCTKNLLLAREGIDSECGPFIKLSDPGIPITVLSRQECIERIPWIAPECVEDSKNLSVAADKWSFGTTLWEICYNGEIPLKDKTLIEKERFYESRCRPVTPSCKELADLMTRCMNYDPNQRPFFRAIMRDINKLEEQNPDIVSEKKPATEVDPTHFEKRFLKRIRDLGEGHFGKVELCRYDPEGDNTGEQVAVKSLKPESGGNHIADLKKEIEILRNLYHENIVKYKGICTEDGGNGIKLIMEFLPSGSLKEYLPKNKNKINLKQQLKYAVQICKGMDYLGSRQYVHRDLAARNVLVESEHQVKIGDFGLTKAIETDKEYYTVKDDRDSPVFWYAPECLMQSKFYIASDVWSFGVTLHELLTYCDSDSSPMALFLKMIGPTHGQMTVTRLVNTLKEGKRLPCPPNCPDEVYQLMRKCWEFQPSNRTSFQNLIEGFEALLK
Each entry below carries its reported inhibition at 0.01 µM.

Test system JAK1 (Homo sapiens, UniProt P23458); read-out inhibition at 0.01 µM; what value for "CN1CCOCCOc2cc(Nc3nc(-c4cnn([C@H](CC#N)C5CCCC5)c4)c4cc[nH]c4n3)ccc2OCC1" ?
25 to 39%

---

target: LRRK2 (Homo sapiens, UniProt Q5S007); experiment: experiment of inhibiting LRRK2 kinase activity (ADP-Glo method); format: biochemical; settings: Table 4
Sequence (Q5S007 whole entry): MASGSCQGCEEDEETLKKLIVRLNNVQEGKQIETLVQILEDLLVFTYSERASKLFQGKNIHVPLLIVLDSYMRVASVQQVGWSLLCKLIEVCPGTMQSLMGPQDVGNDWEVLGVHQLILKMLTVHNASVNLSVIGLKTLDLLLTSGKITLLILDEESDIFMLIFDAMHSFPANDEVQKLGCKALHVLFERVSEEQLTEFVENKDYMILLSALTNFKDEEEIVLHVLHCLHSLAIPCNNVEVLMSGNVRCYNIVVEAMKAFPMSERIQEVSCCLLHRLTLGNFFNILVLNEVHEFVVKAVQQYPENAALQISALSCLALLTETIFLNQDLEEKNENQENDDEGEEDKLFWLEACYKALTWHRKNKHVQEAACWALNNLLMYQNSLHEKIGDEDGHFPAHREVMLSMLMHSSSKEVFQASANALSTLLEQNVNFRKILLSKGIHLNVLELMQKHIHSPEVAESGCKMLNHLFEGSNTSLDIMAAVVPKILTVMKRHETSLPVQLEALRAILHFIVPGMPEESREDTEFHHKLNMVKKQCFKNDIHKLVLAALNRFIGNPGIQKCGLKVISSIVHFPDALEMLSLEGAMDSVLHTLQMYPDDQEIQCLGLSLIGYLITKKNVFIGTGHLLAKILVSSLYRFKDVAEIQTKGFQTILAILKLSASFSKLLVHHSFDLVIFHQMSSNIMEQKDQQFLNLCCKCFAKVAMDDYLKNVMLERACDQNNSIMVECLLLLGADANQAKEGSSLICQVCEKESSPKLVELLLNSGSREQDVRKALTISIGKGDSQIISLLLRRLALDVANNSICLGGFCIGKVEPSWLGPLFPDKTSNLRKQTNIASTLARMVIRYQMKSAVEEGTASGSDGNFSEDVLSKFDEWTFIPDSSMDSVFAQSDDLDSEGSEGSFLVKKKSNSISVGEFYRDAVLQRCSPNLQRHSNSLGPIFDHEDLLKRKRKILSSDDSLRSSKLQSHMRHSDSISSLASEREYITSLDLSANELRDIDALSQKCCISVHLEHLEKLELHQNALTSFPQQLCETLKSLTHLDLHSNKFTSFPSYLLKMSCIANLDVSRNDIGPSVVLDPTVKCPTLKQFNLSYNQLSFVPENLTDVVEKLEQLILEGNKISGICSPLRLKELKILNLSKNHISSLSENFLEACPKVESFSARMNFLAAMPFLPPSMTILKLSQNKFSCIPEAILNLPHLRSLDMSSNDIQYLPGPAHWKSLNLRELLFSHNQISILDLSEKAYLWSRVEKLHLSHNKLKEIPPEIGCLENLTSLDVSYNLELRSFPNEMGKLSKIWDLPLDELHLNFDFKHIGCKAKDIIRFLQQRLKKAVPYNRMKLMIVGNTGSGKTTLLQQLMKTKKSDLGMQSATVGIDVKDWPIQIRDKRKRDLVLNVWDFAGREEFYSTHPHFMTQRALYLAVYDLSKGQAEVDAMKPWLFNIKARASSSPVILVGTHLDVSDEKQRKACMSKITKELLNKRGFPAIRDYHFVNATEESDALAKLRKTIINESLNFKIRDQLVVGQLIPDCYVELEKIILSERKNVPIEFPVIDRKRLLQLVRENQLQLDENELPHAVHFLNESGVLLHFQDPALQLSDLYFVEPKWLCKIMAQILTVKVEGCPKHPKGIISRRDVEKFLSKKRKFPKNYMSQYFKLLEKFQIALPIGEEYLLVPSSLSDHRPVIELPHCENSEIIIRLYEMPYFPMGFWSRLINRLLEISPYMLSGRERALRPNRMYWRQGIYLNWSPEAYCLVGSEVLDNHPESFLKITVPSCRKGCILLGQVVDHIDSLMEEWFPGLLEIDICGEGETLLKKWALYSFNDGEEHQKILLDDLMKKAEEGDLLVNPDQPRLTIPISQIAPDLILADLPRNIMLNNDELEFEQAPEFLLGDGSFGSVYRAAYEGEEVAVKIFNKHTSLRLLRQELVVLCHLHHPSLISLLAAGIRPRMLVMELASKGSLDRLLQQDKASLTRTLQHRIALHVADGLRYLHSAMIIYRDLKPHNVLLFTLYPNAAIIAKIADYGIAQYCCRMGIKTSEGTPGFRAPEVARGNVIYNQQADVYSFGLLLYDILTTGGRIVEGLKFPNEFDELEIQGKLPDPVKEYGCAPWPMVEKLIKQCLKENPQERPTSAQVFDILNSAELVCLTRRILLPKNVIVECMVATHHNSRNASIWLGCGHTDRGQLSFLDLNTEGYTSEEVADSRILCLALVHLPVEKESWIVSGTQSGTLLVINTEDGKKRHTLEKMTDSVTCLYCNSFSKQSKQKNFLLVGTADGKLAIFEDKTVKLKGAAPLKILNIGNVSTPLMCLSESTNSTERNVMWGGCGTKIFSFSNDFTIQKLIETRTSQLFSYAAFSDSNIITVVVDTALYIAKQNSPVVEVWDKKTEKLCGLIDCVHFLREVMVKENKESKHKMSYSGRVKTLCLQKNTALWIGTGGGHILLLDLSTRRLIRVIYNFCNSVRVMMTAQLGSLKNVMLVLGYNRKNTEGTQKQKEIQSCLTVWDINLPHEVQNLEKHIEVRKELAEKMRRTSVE
RESULT TYPE: IC50

Examples from the recorded data:
{"COMPOUND STRING": "Cc1cnc(Nc2ccc3c(c2)OCCN(C)CCOCCO3)nc1O[C@H]1CC[C@@](C)(O)CC1", "IC50": "< 100 nM"}
{"COMPOUND STRING": "CN1CCOCCOc2ccc(Nc3ncc(F)c(O[C@H]4CC[C@@](C)(O)CC4)n3)cc2OCC1", "IC50": "100 to 500 nM"}
{"COMPOUND STRING": "CN1CCOCCOc2ccc(Nc3nc(O[C@H]4CC[C@@](C)(O)CC4)c4ccccc4n3)cc2OCC1", "IC50": "100 to 500 nM"}
{"COMPOUND STRING": "COc1ccccc1Nc1nc(Nc2ccc3c(c2)OCCN(C)CCO3)ncc1C(F)(F)F", "IC50": "< 100 nM"}
{"COMPOUND STRING": "CN1CCOc2ccc(Nc3ncc(C(F)(F)F)c(O[C@H]4CC[C@@](C)(O)CC4)n3)cc2OCC1", "IC50": "< 100 nM"}
{"COMPOUND STRING": "CN1CCOc2ccc(Nc3ncc(C(F)(F)F)c(Nc4ccccc4)n3)cc2OCC1", "IC50": "< 100 nM"}

Would you mind telling me what IC50 value was observed for "CN1CCOCCOc2ccc(Nc3nc(O[C@H]4CC[C@](C)(O)CC4)c4cc[nH]c4n3)cc2OCC1" ?
< 100 nM

Would you mind telling me what IC50 value was observed for "CN1CCOc2ccc(Nc3ncc(F)c(O[C@H]4CC[C@@](C)(O)CC4)n3)cc2OCC1" ?
100 to 500 nM

Would you mind telling me what IC50 value was observed for "CN1CCOCCOc2ccc(Nc3ncc(C(F)(F)F)c(O[C@H]4CC[C@@](C)(O)CC4)n3)cc2OCC1" ?
< 100 nM

Would you mind telling me what IC50 value was observed for "CN1CCOc2ccc(Nc3ncc(C(F)(F)F)c(NC[C@@H]4CCO4)n3)cc2OCC1" ?
< 100 nM

---

Each entry below carries its reported inhibition at 0.01 µM.
target: UniProtKB P29597; experiment: experiment of inhibiting kinase activity, TYK2; type: biochemical; conditions: at 10 nM; read-out: inhibition rate TYK2
Sequence (P29597 whole entry): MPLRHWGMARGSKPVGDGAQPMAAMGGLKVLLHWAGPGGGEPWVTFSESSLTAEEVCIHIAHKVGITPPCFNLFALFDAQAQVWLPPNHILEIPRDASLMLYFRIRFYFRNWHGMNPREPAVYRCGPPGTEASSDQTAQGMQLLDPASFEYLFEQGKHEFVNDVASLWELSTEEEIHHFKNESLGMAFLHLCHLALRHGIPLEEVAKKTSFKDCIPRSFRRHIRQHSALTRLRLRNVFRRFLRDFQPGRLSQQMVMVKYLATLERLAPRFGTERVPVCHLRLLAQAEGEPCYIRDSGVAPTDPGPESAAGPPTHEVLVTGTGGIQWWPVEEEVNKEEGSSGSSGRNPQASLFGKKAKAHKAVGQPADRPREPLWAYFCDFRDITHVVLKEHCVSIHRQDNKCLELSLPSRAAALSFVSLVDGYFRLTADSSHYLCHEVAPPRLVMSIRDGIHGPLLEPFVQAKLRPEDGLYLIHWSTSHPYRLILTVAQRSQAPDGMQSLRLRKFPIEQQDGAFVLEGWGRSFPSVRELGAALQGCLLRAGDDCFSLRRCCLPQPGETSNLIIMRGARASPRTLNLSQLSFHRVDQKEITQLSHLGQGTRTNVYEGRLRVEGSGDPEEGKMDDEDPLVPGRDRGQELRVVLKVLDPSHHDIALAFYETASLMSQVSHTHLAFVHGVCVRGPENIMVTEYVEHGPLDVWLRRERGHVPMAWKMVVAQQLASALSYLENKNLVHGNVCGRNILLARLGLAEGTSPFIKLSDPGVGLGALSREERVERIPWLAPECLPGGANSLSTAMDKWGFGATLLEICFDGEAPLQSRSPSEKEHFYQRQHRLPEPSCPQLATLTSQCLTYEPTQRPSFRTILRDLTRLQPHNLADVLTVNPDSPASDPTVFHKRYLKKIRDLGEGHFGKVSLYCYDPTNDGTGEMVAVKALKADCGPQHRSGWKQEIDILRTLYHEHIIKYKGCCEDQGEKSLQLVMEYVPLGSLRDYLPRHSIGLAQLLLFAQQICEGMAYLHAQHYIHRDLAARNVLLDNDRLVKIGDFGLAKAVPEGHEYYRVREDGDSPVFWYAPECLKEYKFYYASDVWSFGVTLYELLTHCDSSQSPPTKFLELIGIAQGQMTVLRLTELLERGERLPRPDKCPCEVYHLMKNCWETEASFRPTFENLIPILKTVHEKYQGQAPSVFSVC

{"COMPOUND": "CN1CCOc2ccc(Nc3nc(-c4cnn([C@@H](CC#N)C5CCCC5)c4)c4cc[nH]c4n3)cc2OCC1 [Example 77]", "EXPERIMENTAL RESULT": "> 80%"}

Would you mind telling me what inhibition at 0.01 µM value was observed for CN1CCOc2ccc(Nc3nc(-c4cnn([C@H](CC#N)C5CCCC5)c4)c4cc[nH]c4n3)cc2OCC1 [Example 76] ?
> 80%

Would you mind telling me what inhibition at 0.01 µM value was observed for CN1CCOc2ccc(Nc3ncc(C(F)(F)F)c(Nc4ccccc4P(C)(C)=O)n3)cc2OCC1 [Example 83] ?
40 to 79%

---

target: LRRK2 (Homo sapiens, UniProt Q5S007); assay: experiment of inhibiting kinase activity, LRRK2; format: biochemical; conditions: at 10 nM; read-out: inhibition rate LRRK2
RESULT TYPE: inhibition at 0.01 µM

{"COMPOUND": "Cc1nc2c(F)cc(-c3nc(Nc4ccc5c(c4)OCCOCCN(C)CCO5)nc4[nH]ccc34)cc2n1C(C)C", "inhibition at 0.01 µM": "40 to 79%"}
{"COMPOUND": "CN1CCOCCOc2cc(Nc3nc(Nc4ccccc4P(C)(C)=O)c4cn[nH]c4n3)ccc2OCC1", "inhibition at 0.01 µM": "> 80%"}
{"COMPOUND": "CC(C)S(=O)(=O)c1ccccc1Nc1nc(Nc2ccc3c(c2)OCCOCCN(C)CCO3)nc2[nH]ccc12", "inhibition at 0.01 µM": "> 80%"}
{"COMPOUND": "CCS(=O)(=O)N1CC(CC#N)(n2cc(-c3nc(Nc4ccc5c(c4)OCCN(C)CCO5)nc4[nH]ccc34)cn2)C1", "inhibition at 0.01 µM": "40 to 79%"}

Would you mind telling me what inhibition at 0.01 µM value was observed for "CC(=O)N1CCOCCOc2cc(Nc3nc(Nc4ccccc4S(=O)(=O)C(C)C)c4cc[nH]c4n3)ccc2OCC1" ?
> 80%

Would you mind telling me what inhibition at 0.01 µM value was observed for "CN1CCOCCOc2cc(Nc3nc(Nc4ccccc4P(C)(C)=O)c4cc[nH]c4n3)ccc2OCC1" ?
> 80%

Would you mind telling me what inhibition at 0.01 µM value was observed for "CC(C)S(=O)(=O)c1ccccc1Nc1nc(Nc2ccc3c(c2)OCCOCCNCCO3)nc2[nH]ccc12" ?
> 80%

Would you mind telling me what inhibition at 0.01 µM value was observed for "CN1CCOc2ccc(Nc3ncc(C(F)(F)F)c(Nc4ccccc4P(C)(C)=O)n3)cc2OCC1" ?
> 80%

---

target: JAK3 (Homo sapiens); experiment: experiment of inhibiting kinase activity (Caliper mobility shift assay), JAK3; format: biochemical; details: at 100 nM; read-out: inhibition rate JAK3
RESULT TYPE: inhibition at 0.1 µM

{"COMPOUND": "CC(C)S(=O)(=O)c1ccccc1Nc1nc(Nc2ccc3c(c2)OCCOCCN(C)CCO3)nc2[nH]ccc12 [Example 10]", "inhibition at 0.1 µM": "> 80%"}
{"COMPOUND": "CN1CCOCCOc2ccc(Nc3nc(Nc4cccc(S(=O)(=O)NC(C)(C)C)c4)c4cc[nH]c4n3)cc2OCC1 [Example 19]", "inhibition at 0.1 µM": "40 to 79%"}
{"COMPOUND": "CN1CCOc2ccc(Nc3nc(-c4ccc(C(=O)NCC#N)cc4)c4cn[nH]c4n3)cc2OCC1 [Example 38]", "inhibition at 0.1 µM": "25 to 39%"}

// next item, inhibition at 0.1 µM requested
Would you mind telling me what inhibition at 0.1 µM value was observed for CC(C)S(=O)(=O)c1ccccc1Nc1nc(Nc2ccc3c(c2)OCCN(C)CCO3)nc2[nH]ncc12 [Example 36] ?
25 to 39%

---

Each entry below carries its reported inhibition at 0.01 µM.
target: UniProtKB P23458; assay: experiment of inhibiting kinase activity (Caliper mobility shift assay), JAK1; assay type: biochemical; conditions: at 10 nM; read-out: inhibition rate JAK1

Examples from the recorded data:
{"COMPOUND": "CN1CCOCCOc2ccc(Nc3ncc(F)c(-c4ccc(C(=O)NCC#N)cc4)n3)cc2OCC1", "ASSAYED TARGET": "UniProtKB P23458", "inhibition at 0.01 µM": "25 to 39%"}
{"COMPOUND": "CN1CCOc2ccc(Nc3ncc(Cl)c(Nc4cccc(NC(=O)[C@H]5C[C@H](N)C5)c4)n3)cc2OCC1", "ASSAYED TARGET": "UniProtKB P23458", "inhibition at 0.01 µM": "25 to 39%"}
{"COMPOUND": "CN1CCOCCOc2ccc(Nc3nc(-c4cnn(C(CC#N)C5CCCC5)c4)c4cc[nH]c4n3)cc2OCC1 (stereo not shown)", "ASSAYED TARGET": "UniProtKB P23458", "inhibition at 0.01 µM": "> 80%"}
{"COMPOUND": "CN1CCOc2ccc(Nc3nc(-c4cnn(C(CC#N)C5CCCC5)c4)c4cc[nH]c4n3)cc2OCC1 (stereo not shown)", "ASSAYED TARGET": "UniProtKB P23458", "inhibition at 0.01 µM": "40 to 79%"}
{"COMPOUND": "CCS(=O)(=O)N1CC(CC#N)(n2cc(-c3nc(Nc4ccc5c(c4)OCCN(C)CCO5)nc4[nH]ccc34)cn2)C1", "ASSAYED TARGET": "UniProtKB P23458", "inhibition at 0.01 µM": "> 80%"}

Test system UniProtKB P23458; read-out inhibition at 0.01 µM; what value for "CN1CCOCCOc2cc(Nc3nc(-c4ccc(C(=O)NCC#N)cc4)c4cc[nH]c4n3)ccc2OCC1" ?
40 to 79%

Test system UniProtKB P23458; read-out inhibition at 0.01 µM; what value for "CCS(=O)(=O)N1CC(CC#N)(n2cc(-c3nc(Nc4ccc5c(c4)OCCN(C)CCOCCO5)nc4[nH]ccc34)cn2)C1" ?
> 80%
